Tested on: BT-549 breast
Assay: NCI-60 one-dose screen, 48 h
Conditions: 10 µM unless noted
About 83,000 compounds went through this panel and 20% of them were active in at least one assay; those are over-represented in the sample as a whole. The source made the active and inactive calls. Rule for the calls: active = growth percent below 10; inactive = the rest.
Possible outcomes: Yes for active, No for inactive

Molecule	Class label
Cc1cc2c(cc1C)N(C(=O)CCl)CC(=O)N2	No
COc1ccc(C(=O)N2c3ccccc3Sc3ccccc32)c(C(F)(F)F)c1	No
CC1C=CC(OC(=O)C(C)(O)CCC(O)(C(=O)OC2CC(O)C(C(C)C)CC2(C)O)C(C)C)(C(C)C)CC1 (stereo not drawn)	Yes
